Test system: SKM1
Experimental Details: area under dose-response curve (cell viability) (AUC (arbitrary, % viability x log concentration)); higher = less sensitive (more viable)
Test Parameters: 4 days
Counter-ions that a name gives are not always drawn.
Endpoint Name: area under dose-response curve

## Task Which area under dose-response curve is listed for NC(=O)NO [Hydroxyurea] ?
## Result 624

## Task Which area under dose-response curve is listed for CCCS(=O)(=O)Nc1ccc(F)c(C(=O)c2c[nH]c3ncc(Cl)cc23)c1F ?
## Result 597

## Task Which area under dose-response curve is listed for COc1cc2ncnc(Nc3ccc(F)c(Cl)c3)c2cc1OCCCN1CCOCC1 ?
## Result 637

## Task Which area under dose-response curve is listed for COc1cc(OC)c(/C=C/S(=O)(=O)Cc2ccc(OC)c(NCC(=O)O)c2)c(OC)c1 ?
## Result 425

## Task Which area under dose-response curve is listed for Nc1ccn([C@@H]2O[C@H](CO)[C@@H](O)C2(F)F)c(=O)n1 [Gemcitabine HCl] ?
## Result 32.7

## Task Which area under dose-response curve is listed for CCCC(CCC)C(=O)O ?
## Result 688

## Task Which area under dose-response curve is listed for CC1=C(/C=C/C(C)=C/C=C/C(C)=C/C(=O)Nc2ccc(O)cc2)C(C)(C)CCC1 [Fenretinide] ?
## Result 581

## Task Which area under dose-response curve is listed for O=C(/C=C/c1cccc(S(=O)(=O)Nc2ccccc2)c1)NO ?
## Result 469

## Task Which area under dose-response curve is listed for Cc1[nH]c2ccccc2c1CCNCc1ccc(/C=C/C(=O)NO)cc1 ?
## Result 318
